system: P388 leukemia ip, CD2F1 mice, survival T/C; experiment: NCI In Vivo Anticancer Drug Screen. Data for tumor model P388 Leukemia (intraperitoneal) in CD2F1 (CDF1) mice; details: endpoint: median survival time; dose: 50.0 mg/kg/injection; schedule: Q04DX003 (ip); vehicle: saline with Tween-80
Inconclusive results and toxic doses are left out. The calls were made as follows: active = survival T/C of 150% or more; inactive = T/C below 125% in these data.
Outcome (select one): y = active, n = inactive

Worked examples follow.
| Molecule | Category label |
| --- | --- |
| CSc1nc(NC(C)C)nc(NC(C)C)n1 | n |
| O=C(O)CCC(=O)CCl | n |
| CCOC(=O)C(NC(=O)C(Cc1ccc(N(CCCl)CCCl)cc1)NC(C)=O)C(C)C (stereo not drawn) | y |
| CCNC(C)(C)C(SS)c1ccc(C(F)(F)F)cc1 (stereo not drawn) | n |
| c1ccc(CN2CCC(N3CNc4ccccc43)CC2)cc1 | n |

Challenge: Can you look up the reported call for COc1cc(C(=O)C[n+]2ccccc2)ccc1O for me?
Response given: n

Challenge: // query: CCCCCCCCCCCCCCCCCCOP(=O)(CC(=O)NCc1cc(C(C)(C)C)c(O)c(C(C)(C)C)c1)OCCCCCCCCCCCCCCCCCC
Response given: n

Challenge: // query: Cc1cnc(Cl)nc1Sc1nc(N)nc2nc[nH]c12
Response given: y

Challenge: // query: CNc1ccc(N=Nc2ccc3ncccc3c2)cc1
Response given: n

Challenge: // query: O=C1SC2(CCCCC2)SC1=O
Response given: n

Challenge: // query: CCCCCCC(O)C(CCCCCC)[Se]C (stereo not drawn)
Response given: n

Challenge: // query: CCNC(=O)C1CCN(Cc2c[nH]c3ccccc23)CC1
Response given: n

Challenge: // query: O=C(O)c1c(Cl)cccc1Cl
Response given: n
